The following molecules are shown together with reported AUC(0-t) values.
EXPERIMENT SUMMARY: Pharmacokinetic evaluation in Macaca fascicularis monkeys, oral administration
Format: in vivo
CONDITION SUMMARY: cynomolgus monkey, p.o. 5 mg/kg, plasma
QUANTITY KIND: AUC(0-t) (ng·h/mL)

COMPOUND STRING	QUANTITY KIND	UNITS OF MEASURE	REPORTED RESULT
Cc1cc(-n2nc3c(c2-n2ccn(-c4ccc5c(cnn5C5CC5)c4F)c2=O)[C@H](C)N(C(=O)c2cc4cc([C@H]5CCOC(C)(C)C5)ccc4n2[C@@]2(c4noc(=O)[nH]4)[C@@H]4COC[C@@H]42)CC3)cc(C)c1F	AUC(0-t)	ng·h/mL	29700
[2H]C([2H])([2H])n1nc2c3c(c(-n4ccn(-c5c6c(nn5-c5cc(C)c(F)c(C)c5)CCN(C(=O)c5cc7cc([C@H]8CCOC(C)(C)C8)ccc7n5[C@@]5(c7noc(=O)[nH]7)C[C@@H]5C)[C@H]6C)c4=O)ccc31)OCCC2	AUC(0-t)	ng·h/mL	7560

###

EXPERIMENT SUMMARY: Pharmacokinetic evaluation in beagles, oral administration
Type: in vivo
CONDITION SUMMARY: male, beagle, dog, po, p.o. 2 mg/kg, plasma
The following compounds are shown together with reported half-life values.
QUANTITY KIND: half-life (h)

COMPOUND	QUANTITY KIND	UNITS OF MEASURE	REPORTED RESULT
[2H]C([2H])([2H])n1nc2c3c(c(-n4ccn(-c5c6c(nn5-c5cc(C)c(F)c(C)c5)CCN(C(=O)c5cc7cc([C@H]8CCOC(C)(C)C8)ccc7n5[C@@]5(c7noc(=O)[nH]7)C[C@@H]5COC5CC5)[C@H]6C)c4=O)ccc31)OCCC2 [Example 285]	half-life	h	4.1
C#C[C@H]1C[C@]1(c1noc(=O)[nH]1)n1c(C(=O)N2CCc3nn(-c4cc(C)c(F)c(C)c4)c(-n4ccn(-c5ccc6c(cnn6C6CC6)c5F)c4=O)c3[C@@H]2C)cc2cc([C@H]3CCOC(C)(C)C3)ccc21 [Example 143]	half-life	h	3.3

###

EXPERIMENT SUMMARY: Pharmacokinetic evaluation in Macaca fascicularis monkeys, oral administration
Type: in vivo
CONDITION SUMMARY: male, cynomolgus monkey, p.o. 5 mg/kg, plasma, read-out: MRT 0-∞
QUANTITY KIND: MRT inf (h)

COMPOUND STRING	REPORTED RESULT
C#C[C@H]1C[C@]1(c1noc(=O)[nH]1)n1c(C(=O)N2CCc3nn(-c4cc(C)c(F)c(C)c4)c(-n4ccn(-c5ccc6c(cnn6C6CC6)c5F)c4=O)c3[C@@H]2C)cc2cc([C@H]3CCOC(C)(C)C3)ccc21	5.1

###

EXPERIMENT SUMMARY: Pharmacokinetic evaluation in rats, oral administration
Set-up: species or system SD rats
CONDITION SUMMARY: rat, in vivo, p.o. 5 mg/kg, plasma

COMPOUND STRING	UNITS OF MEASURE	half-life
[2H]C([2H])([2H])n1nc2c3c(c(-n4ccn(-c5c6c(nn5-c5cc(C)c(F)c(C)c5)CCN(C(=O)c5cc7cc([C@H]8CCOC(C)(C)C8)ccc7n5[C@@]5(c7noc(=O)[nH]7)C[C@@H]5C)[C@H]6C)c4=O)ccc31)OCCC2	h	7.3
Cc1cc(-n2nc3c(c2-n2ccn(-c4ccc5c(cnn5C5CC5)c4F)c2=O)[C@H](C)N(C(=O)c2cc4cc([C@H]5CCOC(C)(C)C5)ccc4n2[C@@]2(c4noc(=O)[nH]4)C[C@@H]2C)CC3)cc(C)c1F	h	10.5
Cc1cc(-n2nc3c(c2-n2ccn(-c4ccc5c6c(nn5C)CCCOc46)c2=O)[C@H](C)N(C(=O)c2cc4cc([C@H]5CCOC(C)(C)C5)ccc4n2[C@@]2(c4noc(=O)[nH]4)C[C@@H]2C)CC3)cc(C)c1F	h	7.2

###

EXPERIMENT SUMMARY: Pharmacokinetic evaluation in mice, oral administration
Format: in vivo, Balb/c mice
CONDITION SUMMARY: mouse, in vivo, po, p.o. 5 mg/kg, plasma, single PK
The following compounds are shown together with reported AUC(0-inf) values.

COMPOUND STRING	UNITS OF MEASURE	AUC(0-inf)
Cc1cc(-n2nc3c(c2-n2ccn(-c4ccc5c(cnn5C5CC5)c4F)c2=O)[C@H](C)N(C(=O)c2cc4cc([C@H]5CCOC(C)(C)C5)ccc4n2[C@@]2(c4noc(=O)[nH]4)C[C@@H]2COC2CC2)CC3)cc(C)c1F	ng·h/mL	12100
Cc1cc(-n2nc3c(c2-n2ccn(-c4ccc5c6c(nn5C)CCCOc46)c2=O)[C@H](C)N(C(=O)c2cc4cc([C@H]5CCOC(C)(C)C5)ccc4n2[C@@]2(c4noc(=O)[nH]4)C[C@@H]2C)CC3)cc(C)c1F	ng·h/mL	41000
Cc1cc(-n2nc3c(c2-n2ccn(-c4cc5c6c(c4)CCC(=O)N6CCC5)c2=O)[C@H](C)N(C(=O)c2cc4cc([C@H]5CCOC(C)(C)C5)ccc4n2[C@@]2(c4noc(=O)[nH]4)C[C@@H]2C)CC3)cc(C)c1F	ng·h/mL	13300
[2H]C([2H])([2H])n1nc2c3c(c(-n4ccn(-c5c6c(nn5-c5cc(C)c(F)c(C)c5)CCN(C(=O)c5cc7cc([C@H]8CCOC(C)(C)C8)ccc7n5[C@@]5(c7noc(=O)[nH]7)C[C@@H]5C)[C@H]6C)c4=O)ccc31)OCCC2	ng·h/mL	18200

###

The following molecules are shown together with reported half-life values.
EXPERIMENT SUMMARY: Pharmacokinetic evaluation in Macaca fascicularis monkeys, oral administration
Type: in vivo
CONDITION SUMMARY: cynomolgus monkey, p.o. 5 mg/kg, plasma

MOLECULE	half-life [h]
Cc1cc(-n2nc3c(c2-n2ccn(-c4ccc5c(cnn5C5CC5)c4F)c2=O)[C@H](C)N(C(=O)c2cc4cc([C@H]5CCOC(C)(C)C5)ccc4n2[C@@]2(c4noc(=O)[nH]4)[C@@H]4COC[C@@H]42)CC3)cc(C)c1F [Example 65-1]	5.6
[2H]C([2H])([2H])n1nc2c3c(c(-n4ccn(-c5c6c(nn5-c5cc(C)c(F)c(C)c5)CCN(C(=O)c5cc7cc([C@H]8CCOC(C)(C)C8)ccc7n5[C@@]5(c7noc(=O)[nH]7)C[C@@H]5C)[C@H]6C)c4=O)ccc31)OCCC2 [Example 282]	47.6

###

EXPERIMENT SUMMARY: Pharmacokinetic evaluation in mice, oral administration
Assay type: in vivo, Balb/c mice
CONDITION SUMMARY: p.o. 5 mg/kg, plasma, not marked single PK (cassette PK)
The following compounds are shown together with reported tl/2 values.

COMPOUND STRING	UNITS OF MEASURE	tl/2
C[C@H]1c2c(nn(-c3ccc(F)c(C4CC4)c3)c2-n2ccn(-c3ccc4c(c3)C3(CC3)C(=O)N4C)c2=O)CCN1C(=O)c1cc2cc([C@H]3CCOC(C)(C)C3)ccc2n1[C@@]1(c2noc(=O)[nH]2)C[C@@H]1C	h	5.3
[2H]C([2H])(OC1CC1)[C@H]1C[C@]1(c1noc(=O)[nH]1)n1c(C(=O)N2CCc3nn(-c4cc(C)c(F)c(C)c4)c(-n4ccn(-c5ccc6c(cnn6C6CC6)c5F)c4=O)c3[C@@H]2C)cc2cc([C@H]3CCOC(C)(C)C3)ccc21	h	19.9
Cc1cc(-n2nc3c(c2-n2ccn(-c4ccc5c(cnn5C5CC5)c4F)c2=O)[C@H](C)N(C(=O)c2cc4cc([C@H]5CCOC(C)(C)C5)ccc4n2[C@@]2(c4noc(=O)[nH]4)C[C@@H]2C)CC3)cc(C)c1F	h	10.7
Cc1cc(-n2nc3c(c2-n2ccn(-c4ccc(CC(=O)N(C)C)cc4F)c2=O)[C@H](C)N(C(=O)c2cc4cc([C@H]5CCOC(C)(C)C5)ccc4n2[C@@]2(c4noc(=O)[nH]4)C[C@@H]2C)CC3)cc(C)c1F	h	1.6

###

EXPERIMENT SUMMARY: Pharmacokinetic evaluation in beagles, oral administration
Type: in vivo
CONDITION SUMMARY: dog, po, p.o. 2 mg/kg, plasma
The following compounds are shown together with reported half-life values.

COMPOUND STRING	UNITS OF MEASURE	half-life
[2H]C([2H])(OC1CC1)[C@H]1C[C@]1(c1noc(=O)[nH]1)n1c(C(=O)N2CCc3nn(-c4cc(C)c(F)c(C)c4)c(-n4ccn(-c5ccc6c(cnn6C6CC6)c5F)c4=O)c3[C@@H]2C)cc2cc([C@H]3CCOC(C)(C)C3)ccc21	h	7.6
[2H]C([2H])([2H])n1nc2c3c(c(-n4ccn(-c5c6c(nn5-c5cc(C)c(F)c(C)c5)CCN(C(=O)c5cc7cc([C@H]8CCOC(C)(C)C8)ccc7n5[C@@]5(c7noc(=O)[nH]7)C[C@@H]5C)[C@H]6C)c4=O)ccc31)OCCC2	h	8.5
